target: IKZF2 (Homo sapiens, UniProt Q96SW2+Q9UKS7); assay: HEK293 HiBiT in vitro degradation of IKZF2; format: cell-based; design: expressed in transfected cells; conditions: HEK293 HiBiT, 18-24 hr incubation, normalized to DMSO control; read-out: IKZF2 EC50
Sequence (Q9UKS7 1-500 isoform Q9UKS7-2): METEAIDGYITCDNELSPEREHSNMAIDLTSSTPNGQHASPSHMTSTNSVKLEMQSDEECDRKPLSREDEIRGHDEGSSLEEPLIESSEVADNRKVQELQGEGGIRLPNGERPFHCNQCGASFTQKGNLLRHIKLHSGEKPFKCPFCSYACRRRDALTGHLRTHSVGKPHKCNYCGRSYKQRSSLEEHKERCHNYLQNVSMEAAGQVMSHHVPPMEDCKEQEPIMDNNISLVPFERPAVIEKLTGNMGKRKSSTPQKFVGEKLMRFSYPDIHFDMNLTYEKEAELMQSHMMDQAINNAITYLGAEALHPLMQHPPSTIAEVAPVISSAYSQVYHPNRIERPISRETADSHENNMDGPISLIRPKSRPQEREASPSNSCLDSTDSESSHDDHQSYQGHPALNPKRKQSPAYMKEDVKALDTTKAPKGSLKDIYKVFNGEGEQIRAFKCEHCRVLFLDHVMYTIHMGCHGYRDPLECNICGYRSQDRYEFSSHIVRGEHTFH
Sequence (Q96SW2 whole entry): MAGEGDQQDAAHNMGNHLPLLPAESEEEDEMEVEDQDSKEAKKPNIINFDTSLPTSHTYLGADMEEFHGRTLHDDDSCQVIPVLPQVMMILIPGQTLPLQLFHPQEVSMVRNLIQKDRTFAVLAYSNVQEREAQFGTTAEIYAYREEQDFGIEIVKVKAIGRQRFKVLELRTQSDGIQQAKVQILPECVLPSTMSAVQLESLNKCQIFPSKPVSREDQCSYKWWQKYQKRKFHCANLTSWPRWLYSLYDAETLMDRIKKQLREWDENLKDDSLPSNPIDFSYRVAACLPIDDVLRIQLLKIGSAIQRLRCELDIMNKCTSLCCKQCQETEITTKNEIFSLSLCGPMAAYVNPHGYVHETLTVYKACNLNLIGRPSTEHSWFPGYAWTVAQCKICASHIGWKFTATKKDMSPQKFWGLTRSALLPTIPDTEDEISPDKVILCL
Sequence (Q16531 whole entry partner): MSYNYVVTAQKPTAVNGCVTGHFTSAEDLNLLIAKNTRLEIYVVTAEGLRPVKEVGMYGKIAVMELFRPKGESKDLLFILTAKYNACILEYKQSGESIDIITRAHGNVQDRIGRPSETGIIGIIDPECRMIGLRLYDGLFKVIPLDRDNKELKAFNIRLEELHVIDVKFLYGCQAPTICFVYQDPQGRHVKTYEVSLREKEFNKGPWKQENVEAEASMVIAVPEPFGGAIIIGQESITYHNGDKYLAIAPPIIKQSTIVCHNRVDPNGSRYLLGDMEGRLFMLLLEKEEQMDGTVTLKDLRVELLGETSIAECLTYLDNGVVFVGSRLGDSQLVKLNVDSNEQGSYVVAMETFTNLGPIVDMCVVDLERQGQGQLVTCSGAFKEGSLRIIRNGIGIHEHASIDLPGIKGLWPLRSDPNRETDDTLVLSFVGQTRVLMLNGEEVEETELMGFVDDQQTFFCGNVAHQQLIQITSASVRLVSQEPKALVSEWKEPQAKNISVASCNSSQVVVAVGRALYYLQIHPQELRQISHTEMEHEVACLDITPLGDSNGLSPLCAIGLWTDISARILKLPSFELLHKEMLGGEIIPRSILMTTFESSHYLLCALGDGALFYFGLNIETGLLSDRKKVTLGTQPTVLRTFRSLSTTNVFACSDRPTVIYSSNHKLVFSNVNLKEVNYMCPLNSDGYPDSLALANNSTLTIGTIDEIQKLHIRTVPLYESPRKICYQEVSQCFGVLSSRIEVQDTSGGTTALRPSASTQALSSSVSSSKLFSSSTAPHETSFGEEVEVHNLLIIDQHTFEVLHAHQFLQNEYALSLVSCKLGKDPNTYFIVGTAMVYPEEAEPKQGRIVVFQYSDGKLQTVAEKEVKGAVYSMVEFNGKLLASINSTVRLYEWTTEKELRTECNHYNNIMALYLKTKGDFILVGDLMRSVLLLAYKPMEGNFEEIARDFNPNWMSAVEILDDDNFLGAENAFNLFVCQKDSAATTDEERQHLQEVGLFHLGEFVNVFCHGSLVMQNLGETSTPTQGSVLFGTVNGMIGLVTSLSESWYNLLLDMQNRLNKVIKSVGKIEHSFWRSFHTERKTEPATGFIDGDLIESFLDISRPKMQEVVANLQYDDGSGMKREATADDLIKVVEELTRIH
Provide the recorded log10(DC50) for the entries that follow.
Give log10 of DC50, with DC50 taken in nM.

Recall the recorded log10(DC50) for COC1(C)CCC(N[C@H]2CCCO[C@@H]2Cc2ccc3c(c2F)CN(C2CCC(=O)NC2=O)C3=O)CC1 (single isomer, unassigned) [Example 317] with IKZF2 (Homo sapiens, UniProt Q96SW2+Q9UKS7) and state it.
0.78

Item: CC(C)OC1CCC(N[C@H]2CCCO[C@@H]2Cc2ccc3c(c2F)CN(C2CCC(=O)NC2=O)C3=O)CC1 (single isomer, unassigned) [Example 285] Test system: IKZF2 (Homo sapiens, UniProt Q96SW2+Q9UKS7) Read-out: log10(DC50) Value: ?
0.90

I'm curious: which log10(DC50) was measured for O=C1CCC(N2Cc3c(ccc(C[C@H]4CCCC[C@@H]4NC4CCOCC4)c3F)C2=O)C(=O)N1 (stereo partly drawn) [Example 188] tested on IKZF2 (Homo sapiens, UniProt Q96SW2+Q9UKS7)?
0.30

State its log10(DC50) on IKZF2 (Homo sapiens, UniProt Q96SW2+Q9UKS7): O=C1CCC(N2Cc3c(ccc(C[C@H]4CCCC[C@@H]4NC4CCOC4)c3F)C2=O)C(=O)N1 (stereo partly drawn) [Example 118]
0.30

Enter reported log10(DC50) observed with IKZF2 (Homo sapiens, UniProt Q96SW2+Q9UKS7) for O=C1CCC(N2Cc3c(ccc(C[C@H]4OCCC[C@@H]4NC4CCC5(CC4)CC5(F)F)c3F)C2=O)C(=O)N1 (single isomer, unassigned) [Example 364]
0.48

What log10(DC50) appears in the records for this compound with IKZF2 (Homo sapiens, UniProt Q96SW2+Q9UKS7)? O=C1CCC(N2Cc3cc(C[C@H]4CCCC[C@@H]4NCC45CCC(CC4)CC5)ccc3C2=O)C(=O)N1 (stereo partly drawn)
1.57

* * *

Please respond with reported Dmax for every item in the list.
target: IKZF2 (Homo sapiens, UniProt Q96SW2+Q9UKS7); experiment: Human whole blood IKZF2 degradation (flow cytometry, CD4/CD25/Foxp3+ Treg cells); assay type: cell-based; design: endogenous in cells; details: 24 hrs incubation, IKZF2 MFI in CD4/CD25/Foxp3+ Treg cells, flow cytometry
Sequence (Q9UKS7 whole entry): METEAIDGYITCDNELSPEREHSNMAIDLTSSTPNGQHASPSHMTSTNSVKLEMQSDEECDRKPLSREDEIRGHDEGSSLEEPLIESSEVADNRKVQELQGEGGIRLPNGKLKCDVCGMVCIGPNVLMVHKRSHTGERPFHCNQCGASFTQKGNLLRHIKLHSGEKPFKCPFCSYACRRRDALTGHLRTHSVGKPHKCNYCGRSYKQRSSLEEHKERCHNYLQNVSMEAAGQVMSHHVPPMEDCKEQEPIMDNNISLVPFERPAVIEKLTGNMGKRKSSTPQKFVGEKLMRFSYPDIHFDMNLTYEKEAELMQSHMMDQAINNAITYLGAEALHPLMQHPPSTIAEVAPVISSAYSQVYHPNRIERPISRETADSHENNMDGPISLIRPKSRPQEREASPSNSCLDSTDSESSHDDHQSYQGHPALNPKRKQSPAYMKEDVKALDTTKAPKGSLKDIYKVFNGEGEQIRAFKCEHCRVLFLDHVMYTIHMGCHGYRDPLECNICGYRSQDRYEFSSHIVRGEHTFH
Sequence (Q96SW2 whole entry): as the sequence (Q96SW2 whole entry) above
Sequence (Q16531 whole entry partner): as the sequence (Q16531 whole entry partner) above
Provide only the numeric value, understood in %.

Could you tell me which Dmax is on file for O=C1CCC(N2Cc3cc(C[C@H]4CCCC[C@@H]4NC4CC5(C4)CC(F)(F)C5)ccc3C2=O)C(=O)N1 (stereo partly shown) [Example 101] ?
95

Requested read-out: Dmax. Entry: N#CC1CCC(N[C@H]2CCCC[C@@H]2Cc2ccc3c(c2)CN(C2CCC(=O)NC2=O)C3=O)CC1 (single isomer, unassigned) [Example 267]
97

Endpoint output: Dmax of O=C1CCC(N2Cc3cc(C[C@H]4CCCC[C@@H]4NC4CCOCC4)ccc3C2=O)C(=O)N1 (stereo partly shown) [Example 74] . Value?
93

Query (compound): O=C1CCC(N2Cc3cc(C[C@H]4CCCC[C@@H]4NC4CC5(CC5)C4)ccc3C2=O)C(=O)N1 (stereo partly shown) [Example 79] ; field requested: Dmax
93

Look at this compound and give its reported Dmax. O=C1CCC(N2Cc3cc(C[C@H]4CCCC[C@@H]4NC4CCC(F)(F)CC4)ccc3C2=O)C(=O)N1 (stereo partly shown) [Example 46]
96

Request the reported Dmax associated with O=C1CCC(N2Cc3cc(C[C@H]4CCCC[C@@H]4NC4CCC5(CC4)CC5(F)F)ccc3C2=O)C(=O)N1 (single isomer, unassigned) [Example 272]
97

What value of measured Dmax is listed for O=C1CCC(N2Cc3c(ccc(C[C@H]4OCCC[C@@H]4N[C@H]4CC[C@H](F)CC4)c3F)C2=O)C(=O)N1 (single isomer, unassigned) [Example 289] ?
90

Consider the compound shown here: COCC1CCC(N[C@H]2CCCC[C@@H]2Cc2ccc3c(c2)CN(C2CCC(=O)NC2=O)C3=O)CC1 (single isomer, unassigned) [Example 251] What is its recorded Dmax?
98

Query (compound): O=C1CC[C@H](N2Cc3cc(C[C@H]4CCCC[C@@H]4NC4CCC(F)(F)CC4)ccc3C2=O)C(=O)N1 (single isomer, unassigned) [Example 328] ; field requested: Dmax
94

Look at this compound and give its reported Dmax. COC1CCC(N[C@H]2CCCC[C@@H]2Cc2ccc3c(c2)CN(C2CCC(=O)NC2=O)C3=O)CC1 (single isomer, unassigned) [Example 277]
95

What value of Dmax has been recorded for this entry: O=C1CCC(N2Cc3c(ccc(C[C@H]4CCCC[C@@H]4NCC4CCOCC4)c3F)C2=O)C(=O)N1 (stereo partly shown) [Example 115]
90

Query (compound): O=C1CCC(N2Cc3c(ccc(C[C@H]4CCCC[C@@H]4NC4CCC(F)(F)CC4)c3F)C2=O)C(=O)N1 (stereo partly shown) [Example 84] ; field requested: Dmax
93

# get_value(readout='Dmax', item= CC(N[C@H]1CCCC[C@@H]1Cc1ccc2c(c1)CN(C1CCC(=O)NC1=O)C2=O)C1CCC1 (stereo partly shown) [Example 103] )
96

Data provenance is patent US11897862B2.
